# assayedTarget: human KOR receptor (Homo sapiens, UniProt P41145)
# Sequence (P41145 whole entry): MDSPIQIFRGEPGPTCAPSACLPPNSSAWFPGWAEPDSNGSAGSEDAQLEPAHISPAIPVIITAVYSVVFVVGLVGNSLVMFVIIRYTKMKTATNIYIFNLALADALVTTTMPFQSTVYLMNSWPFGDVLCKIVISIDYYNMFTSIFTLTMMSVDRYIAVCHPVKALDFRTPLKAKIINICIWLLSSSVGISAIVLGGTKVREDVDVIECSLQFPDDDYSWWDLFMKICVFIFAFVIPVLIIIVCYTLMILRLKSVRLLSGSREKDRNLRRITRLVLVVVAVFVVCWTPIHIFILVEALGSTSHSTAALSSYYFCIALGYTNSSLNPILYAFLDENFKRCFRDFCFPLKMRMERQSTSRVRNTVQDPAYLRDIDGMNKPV
# assaySummary: IP-One HTRF assay, potency of KOR agonists, dose-response in transiently transfected COS-7 cells
# Assay type: cell-based
EC50 reference

Solved cases below.
O=C(Cc1ccc2sc(=S)[nH]c2c1)N[C@H](CN1CC[C@H](O)C1)c1ccccc1 [Example 118]    ≤ 50 nM
CN(C(=O)Cc1ccc2oc(=O)[nH]c2c1)[C@H](CN1CCC(O)C1)c1cccc(-c2nn[nH]n2)c1 (stereo in doubt) [Example 99]    ≤ 50 nM
CCN(C(=O)Cc1ccc2c(c1)NC(=O)CS2(=O)=O)[C@H](CN1CC[C@H](O)C1)c1cccc(OC(F)(F)F)c1 [Example 14]    ≥ 1000 nM

Request: Give EC50 for this entry on human KOR receptor (Homo sapiens, UniProt P41145): CN(C(=O)Cc1ccc2c(c1)NC(=O)C2)[C@H](CN1CC[C@H](O)C1)c1cccc(-c2cncs2)c1 [Example 216]
Result: ≤ 50 nM

Request: Give EC50 for this entry on human KOR receptor (Homo sapiens, UniProt P41145): CN(C(=O)Cc1ccc2c(c1)CC(=O)N2)C(CN1CCC(O)C1)c1ccccc1 (stereo in doubt) [Example 161]
Result: ≤ 50 nM

Request: Give EC50 for this entry on human KOR receptor (Homo sapiens, UniProt P41145): CN(C(=O)Cc1ccc2oc(=O)[nH]c2c1)[C@H](CN1CCC(O)C1)c1cccc(OCC(=O)OC(C)(C)C)c1 (stereo in doubt) [Example 77]
Result: ≤ 50 nM

Request: Give EC50 for this entry on human KOR receptor (Homo sapiens, UniProt P41145): CN(C(=O)Cc1ccc2c(c1)NC(=O)CO2)[C@H](CN1CC[C@H](O)C1)c1cccc(OCC(N)=O)c1 [Example 173]
Result: ≤ 50 nM

Request: Give EC50 for this entry on human KOR receptor (Homo sapiens, UniProt P41145): O=C(Cc1ccc2sc(=O)[nH]c2c1)N[C@H](CN1CCCC1)c1ccccc1 [Example 4]
Result: 51 to 100 nM

---

# assayedTarget: UniProtKB P41145
# assaySummary: IP-One HTRF assay, potency of KOR agonists, dose-response in transiently transfected COS-7 cells
pEC50: −log10 of the molar value.
pEC50 reference

Solved cases below.
Cn1c(=O)oc2ccc(CC(=O)N[C@H](CN3CCC(O)C3)c3ccccc3)cc21 (stereo in doubt)    ≥ 7.30
CN(C(=O)Cc1ccc2c(c1)NS(=O)(=O)C2)[C@H](CN1CC[C@H](O)C1)c1cccc(C#N)c1    ≥ 7.30
CN(C(=O)Cc1ccc2c(c1)NC(=O)C2)[C@H](CN1CC[C@H](O)C1)c1cccc(C(N)=O)c1    ≥ 7.30
CN(C(=O)Cc1ccc2c(c1)NS(=O)(=O)C2)[C@H](CN1CC[C@H](O)C1)c1cccc(-c2noc(C(F)(F)F)n2)c1 [Example 187, 2,2,2-trifluoroacetate]    ≥ 7.30
CN(C(=O)Cc1ccc2c(c1)NC(=O)CO2)[C@H](CN1CC[C@H](O)C1)c1cccc(C#N)c1    ≥ 7.30
CN(C(=O)Cc1ccc2c(c1)NC(=O)CS2)[C@H](CN1CC[C@H](O)C1)c1cccc(OC(F)(F)F)c1    ≥ 7.30

Request: Give the measured pEC50 for CN(C(=O)Cc1ccc2c(c1)NC(=O)C2)[C@H](CN1CC[C@H](O)C1)c1cccc(-c2nnco2)c1
Result: ≥ 7.30

---

# assayedTarget: human KOR receptor (Homo sapiens, UniProt P41145)
# assaySummary: IP-One HTRF assay, potency of KOR agonists, dose-response in transiently transfected COS-7 cells
reportedProperty: EC50

Solved cases below.
O=C(Cc1ccc2oc(=O)n(Cc3ccc(-c4nnn[nH]4)cc3)c2c1)N[C@H](CN1CC[C@H](O)C1)c1ccccc1    ≤ 50 nM
CN(C(=O)Cc1ccc2oc(=O)[nH]c2c1)[C@H](CN1CC[C@H](O)C1)C1CCCCC1    ≤ 50 nM
O=C(Cc1ccc2oc(=O)[nH]c2c1)NC(CN1CCCC1)c1cnn(Cc2ccccc2)c1 (stereo not shown)    ≤ 50 nM

Request: Give EC50 for this entry on human KOR receptor (Homo sapiens, UniProt P41145): CN(C(=O)Cc1ccc2ccc(=O)[nH]c2c1)[C@H](CN1CCCC1)c1ccccc1
Result: ≥ 1000 nM

---

melting point reference

Solved cases below.
O=C(Cc1ccc2oc(=O)[nH]c2c1)N[C@H](CN1CC[C@H](O)C1)C1CCCCC1    173 to 174 °C
CN(C(=O)Cc1ccc2oc(=O)[nH]c2c1)[C@H](CN1CCC(O)C1)c1cccc(-c2nn[nH]n2)c1 (stereo in doubt)    228 to 230 °C
CN1C(=O)Cc2ccc(CC(=O)N(C)[C@H](CN3CCC(O)C3)c3cccc(-c4nn[nH]n4)c3)cc21 (stereo in doubt)    198 to 200 °C
CN(C(=O)Cc1ccc2c(c1)NC(=O)C2)[C@H](CN1CC[C@H](O)C1)c1ccccc1    166 to 168 °C
COc1ccc(COc2cccc([C@@H](CN3CCCC3)NC(=O)Cc3ccc4oc(=O)n(Cc5ccccc5)c4c3)c2)cc1    72 to 74 °C

Request: Give the measured melting point for O=C(Cc1ccc2oc(=O)[nH]c2c1)N[C@H](CN1CC[C@H](O)C1)c1ccccc1
Result: 210 to 211 °C

Request: Give the measured melting point for O=C1Cc2ccc(CC(=O)N[C@H](CN3CC[C@H](O)C3)C3CCCCC3)cc2N1
Result: 132 to 133 °C

---

melting point reference

Solved cases below.
N#Cc1cccc(Cn2c(=O)oc3ccc(CC(=O)N[C@H](CN4CC[C@H](O)C4)c4ccccc4)cc32)c1    65 to 68 °C
CN(C(=O)Cc1ccc2oc(=O)n(Cc3ccccc3)c2c1)[C@H](CN1CCCC1)c1cccc(O)c1    165 to 167 °C
Cn1c(=O)oc2ccc(CC(=O)N[C@H](CN3CCCC3)c3ccccc3)cc21    105 to 107 °C
CN(C(=O)Cc1ccc2oc(=O)[nH]c2c1)[C@H](CN1CCCC1)c1cccc(-c2nn[nH]n2)c1    240 to 242 °C
N#Cc1cccc(Cn2c(=O)oc3ccc(CC(=O)N[C@H](CN4CCCC4)c4ccccc4)cc32)c1    109 to 110 °C

Now look at this entry.
Request: Give the measured melting point for Cl.O=C(O)COc1cccc(C(CN2CCCC2)NC(=O)Cc2ccc3c(c2)NC(=O)C3)c1 (stereo not drawn)
Result: 104 to 106 °C

---

pEC50 reference
# assayedTarget: human KOR receptor (Homo sapiens, UniProt P41145)
# assaySummary: IP-One HTRF assay, potency of KOR agonists, dose-response in transiently transfected COS-7 cells
# Format: cell-based
pEC50: −log10 of the molar value. Where a name gives a salt, the structure may show the parent alone.

Solved cases below.
CN(C(=O)Cc1ccc2c(c1)NC(=O)C2)[C@H](CN1CC[C@H](O)C1)c1cccc(-c2noc(C(F)(F)F)n2)c1 [Example 179]    ≥ 7.30
CN(C(=O)Cc1ccc2c(c1)N(C)S(=O)(=O)C2)[C@H](CN1CC[C@H](O)C1)c1cccc(-c2nn[nH]n2)c1 [Example 21]    7.00 to 7.29
CN(C(=O)Cc1ccc2c(c1)NC(=O)C2)[C@H](CN1CC[C@H](O)C1)c1cccc(-c2nnn(C)n2)c1 [Example 44]    7.00 to 7.29
Cc1cnc(-c2cccc([C@@H](CN3CC[C@H](O)C3)N(C)C(=O)Cc3ccc4c(c3)NC(=O)C4)c2)s1 [Example 215]    ≥ 7.30
O=C(O)COc1cccc([C@@H](CN2CCCC2)NC(=O)Cc2ccc3oc(=O)[nH]c3c2)c1 [Example 85, hydrochloride]    ≥ 7.30

Request: Give pEC50 for this entry on human KOR receptor (Homo sapiens, UniProt P41145): O=C1Cc2cc(CC(=O)N[C@H](CN3CC[C@H](O)C3)c3ccccc3)ccc2N1 [Example 157]
Result: ≥ 7.30

Request: Give pEC50 for this entry on human KOR receptor (Homo sapiens, UniProt P41145): CN(C(=O)Cc1ccc2c(c1)NC(=O)C2(F)F)[C@H](CN1CC[C@H](O)C1)c1ccccc1 [Example 12]
Result: ≥ 7.30

---

# assayedTarget: human KOR receptor (Homo sapiens, UniProt P41145)
# assaySummary: IP-One HTRF assay, potency of KOR agonists, dose-response in transiently transfected COS-7 cells
# Assay type: cell-based
EC50 reference

Solved cases below.
CN(C(=O)Cc1ccc2c(c1)CC(=O)N2)[C@H](CN1CC[C@H](O)C1)c1cccc(OCC(=O)O)c1 [Example 169]    ≤ 50 nM
CC(C)(C(=O)N[C@H](CN1CC[C@H](O)C1)c1ccccc1)c1ccc2oc(=O)[nH]c2c1 [Example 55]    ≤ 50 nM
CN(C(=O)Cc1ccc2oc(=O)n(Cc3ccc(-c4nnn[nH]4)cc3)c2c1)[C@H](CN1CCC(O)C1)c1ccccc1 (stereo in doubt) [Example 104]    ≤ 50 nM

Now look at this entry.
Request: Give the measured EC50 for CN(C(=O)Cc1ccc2ncc(=O)[nH]c2c1)[C@H](CN1CC[C@H](O)C1)c1cccc(C(=O)O)c1 [Example 31]
Result: ≤ 50 nM
